Where do the numbers come from? From patent US20230322924A1.

subjectOfTest: T1, Cyno CD33 ECD-HSA (cynomolgus monkey)
T1 construct: Cyno CD33 extracellular domain fused to monomeric human serum albumin and a six-histidine tag; also called C33W1
assayOverview: ProteOn SPR, mAb captured by anti-human Fc, 1:1 Langmuir fit
// reported kon per item
Entry rule: numbers only, all in M⁻¹ s⁻¹.

C33B66 (antibody, IgG1, V domains shown, huIgG1 F405L; also called C33F71; C33H55/C33L42) VH: QVQLQESGPGLVKPSGTLSLTCAVSGGSISSSNWWSWVRQPPGRGLEWIGEIYHSGNTNNSPSLKSRVTISADKSKNQFSLKLSSVTAADTAVYFCARIIAVARYFDSWGQGTLVTVSS VL: SYVLTQPPSVSVAPGQTARITCGGNNIGIKSVHWYQQKPGQAPVLVVYDDSDRPPGIPERFSGSNSGNTATLTITRVEAGDEADYYCQVWDSSSDHVVFGGGTKLTVL | 1.22e+06

Asked: So what does the record say about kon for C33B54 (antibody, IgG1, V domains shown, huIgG1 F405L; also called C33F59; C33H44/C33L10) VH: QVQLQQSGPGLVKPSQTLSLTCAISGDSVSSNSAAWNWIRQSPSRGLEWLGRTYYRSKWYNDYAVSVRSRITINPDTSKNQFSLQLNSVTPEDTAVYHCARETMFRGLMDYWGQGTLVTVSS VL: SYVLTQPPSVSVAPGQTARITCGGSNIGSKSVHWYQQKPGQAPVMVVYDDSDRPSGIPERFSGSNSGNTATLTISRVEAGDEADYYCQVWDSSSDVVFGGGTKLTVL ?
Given back: 1.32e+06

Asked: For C33B63 (antibody, IgG1, V domains shown, huIgG1 F405L; also called C33F68; C33H51/C33L34) VH: QLQLQESGPGLVKPSETLSLTCTVSGGSISTGRYYWGWIRQPPGKGVIWIGNIYYSGNTYYNPSLKSRVTISVDTSKNQFSLKLNSVTAADTAVYYCARLGSLVVVPAAMSFDYWGQGTLVTVSS VL: SYELTQPPSVSVSPGQTASITCSGDKLGDKYACWYQLRPGQSPILVIYQDSNRPSGIPERFSGSNSGNTATLTISGTQAMDEADYYCQAWDSSTWVFGGGTKLTVL then?
Given back: 723000
